FYI, the data here is from patent US7667036B2.

- assaySystem: MAPKAP-K2 (Homo sapiens, UniProt P49137)
- Sequence (P49137 whole entry): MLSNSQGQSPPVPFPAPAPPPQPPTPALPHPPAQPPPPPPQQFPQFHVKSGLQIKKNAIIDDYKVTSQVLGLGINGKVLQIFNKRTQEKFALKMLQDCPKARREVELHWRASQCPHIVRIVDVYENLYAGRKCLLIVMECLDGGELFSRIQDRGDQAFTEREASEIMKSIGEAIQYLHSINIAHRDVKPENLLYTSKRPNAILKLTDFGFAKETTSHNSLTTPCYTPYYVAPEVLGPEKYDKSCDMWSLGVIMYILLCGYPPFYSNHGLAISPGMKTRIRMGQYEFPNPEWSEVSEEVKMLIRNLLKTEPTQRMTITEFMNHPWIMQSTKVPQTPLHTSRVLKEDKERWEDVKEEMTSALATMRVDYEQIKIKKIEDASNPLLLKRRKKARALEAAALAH
- testDetails: MAPKAP-K2 enzyme activity inhibition assay, Method B (33P-ATP, MultiScreen-PH plate)
- Format: biochemical
- testContext: recombinant human MAPKAP-K2, 0.5% DMSO, 30 min room temperature, read-out: Inhibitory activity (MAPKAP-K2 IC50 class)
pIC50: −log10 of the molar value.
Consider the following compounds; for each one, report its pIC50.

Recorded results for 6 compounds are shown here.
> print(dat)
                                   compound  outcomemeasure  reportedresult
1  CCOc1ccc(Nc2c(C)c(OC(CN)c3ccccc3)nc3ccnn23)cc1 (stereo not shown)           pIC50    4.00 to 4.70
2  CCOc1ccc(Nc2c(C)c(OCC3(N)CCCC3)nc3ccnn23)cc1           pIC50    4.00 to 4.70
3  CCOc1ccc(Nc2c(-c3ccccc3)c(OCCN)nc3ccnn23)cc1           pIC50    4.00 to 4.70
4  Cc1c(O[C@H]2CC[C@@H](N)CC2)nc2ccnn2c1NC1CCCC1           pIC50    4.70 to 5.70
5  CCOc1ccc(Nc2c(C)c(O[C@H]3CNCC[C@@H]3CCO)nc3ccnn23)cc1           pIC50          ≥ 5.70
6  Cc1c(OC2CCCNC2)nc2ccnn2c1Nc1ccc(SC(F)(F)F)cc1 (stereo not shown)           pIC50    4.70 to 5.70

Okay, now this compound:
What value of pIC50 has been recorded for this entry: COc1cc(Nc2c(C)c(OC3CCCNC3)nc3ccnn23)cc(OC)c1 (stereo not shown)
4.00 to 4.70
